target: T1, HLA-A*02:01 (human, biotinylated heavy chain); test: UV-induced peptide exchange, HLA class I ELISA; Pos peptide = 100%;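 note: Streptavidin-captured biotinylated HLA class I complexes detected by HRP-conjugated anti-human B2M antibody, absorbance readout of intact complex amount after exchange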
T1 construct: Conditional HLA class I complex whose UV-labile peptide is exchanged for the test peptide
measure-name: exchange rate with Pos peptide (%)
Express it in %; write the number only.

// FPVGAEGTF (9-mer fragment of neoantigen P27; synthetic peptide) [P27 9-mer FPVGAEGTF] : exchange rate with Pos peptide value = 10

// STRRAVRRM (9-mer fragment of neoantigen P16 (MSMB-NCOA4 fusion); synthetic peptide) [P16 9-mer STRRAVRRM] : exchange rate with Pos peptide value = 10.4

// NMVENGCYL (9-mer fragment of neoantigen P59; synthetic peptide) [P59 9-mer NMVENGCYL] : exchange rate with Pos peptide value = 11.9

// GVLRRLLCR (9-mer fragment of neoantigen P37; synthetic peptide) [P37 9-mer GVLRRLLCR] : exchange rate with Pos peptide value = 12.5

// IQYSCMGLM (9-mer fragment of neoantigen P50; synthetic peptide) [P50 9-mer IQYSCMGLM] : exchange rate with Pos peptide value = 8.8

// NSKMALNSL (9-mer fragment of neoantigen P35; synthetic peptide) [P35 9-mer NSKMALNSL] : exchange rate with Pos peptide value = 12.5
